biological target: VKOR W59R (Homo sapiens, UniProt Q9BQB6, W59R); assay: Inhibition potency of VKAs on VKOR mutation expressed in DGKO reporter cells; conditions: read-out: IC50 ± standard deviation, 5 μM KO, 24 hours
QUANTITY MEASURED: IC50

COMPOUND STRUCTURE STRING: CC1=C(CC2=CC=CC=CC=C2)C(=O)c2ccccc2C1=O
RESULT: 615 nM

###

target: VKOR Y139F (Homo sapiens, UniProt Q9BQB6, Y139F); test: Inhibition potency of VKAs on VKOR mutation expressed in DGKO reporter cells; conditions: read-out: IC50 ± standard deviation, 5 μM KO, 24 hours

COMPOUND STRUCTURE STRING: CC1=C(CC2=CC=CC=CC=C2)C(=O)c2ccccc2C1=O
IC50: 658 nM
